Measured values drawn from the supplement of paper PMC10567573 for this set.

B1: TSPAN10 (parent)
chain: EGCGPPLRRWLRANLAASGGYAIA

Variants of: B1
Test: protein stability index of a GFP-peptide fusion (GPS, HEK-293T) (PSI 1-6); higher = more stable;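 also: lentivirally expressed fusions sorted by FACS into six bins by GFP to DsRed ratio, PSI derived from sequencing read proportions per bin multiplied by bin number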
Details: c terminus: a fixed tail appended
quantity_measured: protein stability index
Number only, no unit.

# protein stability index (variant: A16E ) is 2.58

# protein stability index (variant: G2Y ) is 1.69

# protein stability index (variant: N14I ) is 1.05

# protein stability index (variant: G20N ) is 3.44

# protein stability index (variant: A17Q ) is 2.79

# protein stability index (variant: R12E ) is 2.23

# protein stability index (variant: L7Q ) is 1.36

# protein stability index (variant: E1R ) is 2.57

# protein stability index (variant: L11R ) is 2.56

# protein stability index (variant: L11E ) is 2.57

# protein stability index (variant: S18L ) is 2.19

# protein stability index (variant: Y21C ) is 2.36

# protein stability index (variant: L7C ) is 1.87

# protein stability index (variant: I23E ) is 2.34

# protein stability index (variant: G2Q ) is 2.33

# protein stability index (variant: S18E ) is 1.75

# protein stability index (variant: A16I ) is 1.96

# protein stability index (variant: R9W ) is 1

# protein stability index (variant: A16P ) is 1.78

# protein stability index (variant: A13N ) is 2.19

# protein stability index (variant: A24Y ) is 1.16

# protein stability index (variant: C3A ) is 2.3

# protein stability index (variant: A22S ) is 1.93

# protein stability index (variant: G2W ) is 2

# protein stability index (variant: G2C ) is 1.68

# protein stability index (variant: A22M ) is 1.62

# protein stability index (variant: G20R ) is 1.48

# protein stability index (variant: A22G ) is 1.96

# protein stability index (variant: L7P ) is 2.27

# protein stability index (variant: G20M ) is 1.84

# protein stability index (variant: R8T ) is 1.71

# protein stability index (variant: G4C ) is 1.32

# protein stability index (variant: L7V ) is 2.3

# protein stability index (variant: A22I ) is 1.03

# protein stability index (variant: A24W ) is 2.25

# protein stability index (variant: A22W ) is 2.18

# protein stability index (variant: A17Y ) is 1.97

# protein stability index (variant: S18K ) is 1.61

# protein stability index (variant: I23M ) is 1.21

# protein stability index (variant: C3L ) is 2.65

# protein stability index (variant: G4D ) is 2.1

# protein stability index (variant: E1M ) is 2.45

# protein stability index (variant: S18Y ) is 1.4

# protein stability index (variant: R8G ) is 1.71

# protein stability index (variant: G20L ) is 1.96

# protein stability index (variant: R8P ) is 1.46
